For each record, write down the corresponding MIC.
- System: Staphylococcus epidermidis
- testProtocol: Antibacterial activity against Staphylococcus epidermidis assessed as bacterial growth inhibition by CLSI protocol based broth microdilution assay
- Type: functional
Give a bare numeral; the unit µg/mL is implied.

Q: // MIC lookup, key: Cc1cc(O)c2c(c1)C(=O)[C@]13C[C@H](O)C4C1[C@@H](O)[C@H](C(O)=C3C2=O)[C@@]12O[C@@]41C(=O)c1cc(C)cc(O)c1[C@H]2O (stereo not given in full)
Ans: 3.3

Q: // MIC lookup, key: Cc1cc(O)c2c(c1)C(=O)C1=C(C2=O)[C@H]2C(O)=C3C(=O)c4c(O)cc(C)cc4C(=O)[C@@]34CC(=O)C1C4[C@H]2O (stereo not given in full)
Ans: 0.4

Q: // MIC lookup, key: Cc1cc(O)c2c(c1)C(=O)[C@]13C[C@H](O)C4C1[C@@H](O)[C@H](C(O)=C3C2=O)[C@@]12O[C@@]41C(=O)c1cc(C)cc(O)c1C2=O (stereo not given in full)
Ans: 0.4

Q: // MIC lookup, key: Cc1cc(O)c2c(c1)C(=O)C1=C(C2=O)[C@H]2C(O)=C3C(=O)c4c(O)cc(C)cc4C(=O)[C@@]34C[C@H](O)C1C4[C@H]2O (stereo not given in full)
Ans: 1.6

Q: // MIC lookup, key: O=C(N[C@H](CO)[C@H](O)c1ccc([N+](=O)[O-])cc1)C(Cl)Cl [CHLORAMPHENICOL]
Ans: 1.5
